molecular target: KRAS G12C and cRAF (Homo sapiens, UniProt P01116, C118S/C51S/C80L/G12C); construct: truncated version comprising amino acids 1-169; assay: AlphaScreen inhibition of KRAS G12C (GMPPNP-loaded) and cRAF RBD binding; conditions: KRAS G12C preloaded with GMPPNP, 0.5 nM KRAS G12C, 0.75 nM RBD, 19-20 h compound incubation, room temperature
Sequence (P01116 1-169 isoform P01116-2 G12C/C51S/C80L/C118S): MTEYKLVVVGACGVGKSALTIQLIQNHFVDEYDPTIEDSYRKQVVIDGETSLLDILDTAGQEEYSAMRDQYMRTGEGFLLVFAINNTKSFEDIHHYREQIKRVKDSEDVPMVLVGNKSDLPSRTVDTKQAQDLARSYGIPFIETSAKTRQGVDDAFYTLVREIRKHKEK
Measured Endpoint: IC50

> print(dat)
                              record.smiles   result
1  Cc1noc(/C=C/C(=O)N2CC(CN(C)c3nc(OC[C@@]45CCCN4C[C@H](F)C5)nc4c(F)c(-c5cc(O)cc6cccc(Cl)c56)ncc34)C2)n1  < 10 nM
